# Experimental system: FLT3 571-993 (Homo sapiens)
# Sequence (P36888 571-993): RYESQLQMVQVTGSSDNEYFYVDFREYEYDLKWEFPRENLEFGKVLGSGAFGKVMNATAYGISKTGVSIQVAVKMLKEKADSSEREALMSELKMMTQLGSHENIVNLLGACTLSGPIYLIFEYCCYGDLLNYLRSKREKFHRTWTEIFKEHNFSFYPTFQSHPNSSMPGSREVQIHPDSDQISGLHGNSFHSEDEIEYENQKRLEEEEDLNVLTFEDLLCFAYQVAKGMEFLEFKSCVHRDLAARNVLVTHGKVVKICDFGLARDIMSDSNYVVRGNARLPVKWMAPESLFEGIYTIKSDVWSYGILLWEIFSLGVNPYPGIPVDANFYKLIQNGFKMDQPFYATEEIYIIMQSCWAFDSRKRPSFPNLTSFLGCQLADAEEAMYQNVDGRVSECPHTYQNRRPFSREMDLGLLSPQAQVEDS
Recorded metric: IC50 (nM)
# value in nM; strip the unit string

CC(C)Oc1ccc(NC(=O)OC2CCN(c3ncnc4sccc34)C2)cc1 (stereo not shown) : 761
CC(C)Oc1ccc(NC(=O)OC2CCN(c3ncnc4sccc34)CC2)cc1 : 2090
CC(C)c1ccc(NC(=O)OC2CCN(c3ncnc4sccc34)CC2)cc1 : 102
CC(C)c1ccc(NC(=O)OC2CCN(c3ncnc4ccsc34)C2)cc1 (stereo not shown) : 64
CC(C)Oc1ccc(NC(=O)NC2CCN(c3ncnc4ccsc34)C2)cc1 (stereo not shown) : 296
CC(C)c1ccc(NC(=O)NC2CCN(c3ncnc4ccsc34)C2)cc1 (stereo not shown) : 77

Now for another entry.
Lookup: State the recorded IC50 for this entry: CC(C)Oc1ccc(NC(=O)OC2CCN(c3ncnc4ccsc34)CC2)cc1
Found: 3030
